Catalogue of viability values
# test.details: HUVEC growth inhibition – cell-based, human, primary screen (AID 575);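 note: 100% = median of untreated cell wells with 0.1% DMSO on each plate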
# applied.conditions: HUVEC proliferation, CellTiter-Glo luminescence, 72 h; at 10 µM; hits give low values
measured.property: viability (%)

{"compound": "COc1ccc(OCCCC(=O)Nc2nncs2)cc1", "measured.property": "viability", "value.reported": 101}
{"compound": "CCN1CCN(C(c2cccs2)C(C)NC(=O)c2ccccc2)CC1 (stereo unspecified)", "measured.property": "viability", "value.reported": 104}
{"compound": "CCOc1cccc(-c2nnc3n2N=C(c2cc(OC)ccc2OC)CS3)c1", "measured.property": "viability", "value.reported": 42.4}
{"compound": "O=C(NCCN1CCN(c2ccccc2)CC1)c1ccc(NC(=O)C2CCCO2)cc1 (stereo unspecified)", "measured.property": "viability", "value.reported": 96.9}
{"compound": "Cc1ccc2cc(CCNC(=O)C(C)C)c(=O)[nH]c2c1C", "measured.property": "viability", "value.reported": 99.4}
{"compound": "O=c1oc2c3c4c(cc2cc1-c1nc2ccccc2[nH]1)CCCN4CCC3", "measured.property": "viability", "value.reported": 71.7}
